Every entry's value here was drawn from patent US20250051344A1.

# TARGET_OR_SYSTEM: SMARCA2 (Homo sapiens, UniProt P51531)
# Construct: endogenous in cells
# Sequence (P51531 whole entry, species assumed): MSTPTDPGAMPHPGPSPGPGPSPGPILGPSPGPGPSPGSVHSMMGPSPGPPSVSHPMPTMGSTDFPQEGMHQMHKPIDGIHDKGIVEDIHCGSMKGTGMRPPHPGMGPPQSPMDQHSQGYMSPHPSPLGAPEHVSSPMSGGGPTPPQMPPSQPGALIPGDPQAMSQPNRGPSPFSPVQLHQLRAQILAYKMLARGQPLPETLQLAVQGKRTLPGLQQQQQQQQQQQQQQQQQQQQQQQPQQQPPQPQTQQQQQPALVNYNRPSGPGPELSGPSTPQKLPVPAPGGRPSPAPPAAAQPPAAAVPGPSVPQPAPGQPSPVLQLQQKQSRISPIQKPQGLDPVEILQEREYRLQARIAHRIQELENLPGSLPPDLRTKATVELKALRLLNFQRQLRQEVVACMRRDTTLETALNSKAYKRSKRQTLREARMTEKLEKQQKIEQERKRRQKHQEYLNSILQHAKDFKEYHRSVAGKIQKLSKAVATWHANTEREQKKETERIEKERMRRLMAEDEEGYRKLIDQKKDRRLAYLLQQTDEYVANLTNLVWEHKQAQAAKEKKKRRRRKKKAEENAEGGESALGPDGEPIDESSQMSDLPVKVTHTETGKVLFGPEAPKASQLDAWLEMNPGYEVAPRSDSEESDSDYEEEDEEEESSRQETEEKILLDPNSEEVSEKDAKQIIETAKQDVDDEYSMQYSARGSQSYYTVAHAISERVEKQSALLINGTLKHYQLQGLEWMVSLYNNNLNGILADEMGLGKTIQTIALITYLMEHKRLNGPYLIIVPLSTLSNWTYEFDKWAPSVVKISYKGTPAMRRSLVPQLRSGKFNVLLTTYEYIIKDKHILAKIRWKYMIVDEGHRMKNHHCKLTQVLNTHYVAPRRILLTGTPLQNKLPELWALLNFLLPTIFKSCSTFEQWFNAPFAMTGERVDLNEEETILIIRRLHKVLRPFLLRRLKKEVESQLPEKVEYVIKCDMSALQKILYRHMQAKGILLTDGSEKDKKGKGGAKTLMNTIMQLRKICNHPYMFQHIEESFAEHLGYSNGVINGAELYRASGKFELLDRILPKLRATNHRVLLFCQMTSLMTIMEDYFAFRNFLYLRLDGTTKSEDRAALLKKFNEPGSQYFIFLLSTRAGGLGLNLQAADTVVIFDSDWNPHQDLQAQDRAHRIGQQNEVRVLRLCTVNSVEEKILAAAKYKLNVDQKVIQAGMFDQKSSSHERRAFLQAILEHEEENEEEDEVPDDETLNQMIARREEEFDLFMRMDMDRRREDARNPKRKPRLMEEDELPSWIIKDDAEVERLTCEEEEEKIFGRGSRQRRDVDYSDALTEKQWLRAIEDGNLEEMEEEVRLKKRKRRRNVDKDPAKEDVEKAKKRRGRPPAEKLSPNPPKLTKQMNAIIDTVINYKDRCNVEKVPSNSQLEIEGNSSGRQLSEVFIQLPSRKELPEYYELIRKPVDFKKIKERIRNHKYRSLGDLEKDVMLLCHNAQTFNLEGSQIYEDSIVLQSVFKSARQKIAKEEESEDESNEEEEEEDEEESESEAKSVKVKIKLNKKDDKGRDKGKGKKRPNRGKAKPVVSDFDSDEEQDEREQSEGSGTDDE
# ASSAY_TEXT: SMARCA2 Cellular Degradation Assay (Western blot analysis on Jess platform)
# Assay type: cell-based
# STATED_CONDITIONS: cellular degradation
# Method: SMARCA2 Cellular Degradation Assay Western Blot Analysis for SMARCA2 Degradation […] Following normalization, the percentage of SMARCA2 remaining per sample relative to the vehicle control was calculated as follows: […]

COMPOUND | Dmax [%]
O=C1CC[C@H](c2ccc(N3CCC(CCN4CCC(N(C(=O)C5(c6ccccc6)CCN(c6cnnc(-c7ccccc7O)c6)CC5)C5CC5)CC4)CC3)cc2)C(=O)N1 [Example 74] | 94.2
C[C@@H](Oc1ccc(C2CCC(=O)NC2=O)cc1)C1CCN(C(=O)C2(c3ccccc3)CCN(c3cnnc(-c4ccccc4O)c3)CC2)CC1 (mixture of isomers) [Example 3] | 54.2
CC(C)c1cc(C2(C(=O)N(C)C3CCN(C4COC5(CCN(c6ccc([C@H]7CCC(=O)NC7=O)cc6)CC5)C4)CC3)CCN(c3cnnc(-c4ccccc4O)c3)CC2)no1 (mixture of isomers) [Example 59] | 72.8
O=C1CCC(c2ccc(N3CCC(CN4CC5(C4)CN(CC4(c6ccccc6)CCN(c6cnnc(-c7ccccc7O)c6)CC4)C5)CC3)cc2)C(=O)N1 (racemic) [Example 44] | 86.6
O=C1CC[C@H](c2ccc(N3CCC(CN4CCCC4C4CCN(C(=O)C5(c6ccccc6)CCN(c6cnnc(-c7ccccc7O)c6)CC5)CC4)CC3)cc2)C(=O)N1 (some centres unmarked) [Example 40] | 50.3

====

The molecules listed here are annotated with their Fold Selectivity SMARCA4/2.
# TARGET_OR_SYSTEM: SMARCA2 (Homo sapiens)
# Construct: endogenous in cells
# ASSAY_TEXT: SMARCA2 Cellular Degradation Assay (Western blot analysis on Jess platform)
# Format: cell-based
# STATED_CONDITIONS: ratio DC50 SMARCA4 / DC50 SMARCA2

MOLECULE | Fold Selectivity SMARCA4/2
O=C1CCC(NC(=O)c2cc(N3CCN(C(=O)C4(c5ccccc5)CCN(c5cnnc(-c6ccccc6O)c5)CC4)CC3)ccn2)C(=O)N1 (racemic) | 1
O=C1CC[C@H](c2ccc(N3CCC(CNC4CCN(C(=O)C5(Oc6ccccc6)CCN(c6cnnc(-c7ccccc7O)c6)CC5)CC4)CC3)cc2)C(=O)N1 | 754
O=C1CC[C@H](c2ccc(N3CCC(CN4CCCC5C4CCCN5C(=O)C4(c5ccccc5)CCN(c5cnnc(-c6ccccc6O)c5)CC4)CC3)cc2)C(=O)N1 (some centres unmarked) | 1
O=C1CC[C@@H](c2ccc(N3CCC(CN4CC5(C4)CN(C(=O)C4(c6ccccc6)CCN(c6cnnc(-c7ccccc7O)c6)CC4)C5)CC3)cc2)C(=O)N1 | 241.66
O=C1CCC(c2ccc(N3CCC4(CC3)COC(CN3CC5(CCN(C(=O)C6(c7ccccc7)CCN(c7cnnc(-c8ccccc8O)c7)CC6)CC5)C3)C4)cc2)C(=O)N1 (racemic) | 312

====

# TARGET_OR_SYSTEM: SMARCA4 (Homo sapiens, UniProt P51532)
# Construct: endogenous in cells
# Sequence (P51532 whole entry, species assumed): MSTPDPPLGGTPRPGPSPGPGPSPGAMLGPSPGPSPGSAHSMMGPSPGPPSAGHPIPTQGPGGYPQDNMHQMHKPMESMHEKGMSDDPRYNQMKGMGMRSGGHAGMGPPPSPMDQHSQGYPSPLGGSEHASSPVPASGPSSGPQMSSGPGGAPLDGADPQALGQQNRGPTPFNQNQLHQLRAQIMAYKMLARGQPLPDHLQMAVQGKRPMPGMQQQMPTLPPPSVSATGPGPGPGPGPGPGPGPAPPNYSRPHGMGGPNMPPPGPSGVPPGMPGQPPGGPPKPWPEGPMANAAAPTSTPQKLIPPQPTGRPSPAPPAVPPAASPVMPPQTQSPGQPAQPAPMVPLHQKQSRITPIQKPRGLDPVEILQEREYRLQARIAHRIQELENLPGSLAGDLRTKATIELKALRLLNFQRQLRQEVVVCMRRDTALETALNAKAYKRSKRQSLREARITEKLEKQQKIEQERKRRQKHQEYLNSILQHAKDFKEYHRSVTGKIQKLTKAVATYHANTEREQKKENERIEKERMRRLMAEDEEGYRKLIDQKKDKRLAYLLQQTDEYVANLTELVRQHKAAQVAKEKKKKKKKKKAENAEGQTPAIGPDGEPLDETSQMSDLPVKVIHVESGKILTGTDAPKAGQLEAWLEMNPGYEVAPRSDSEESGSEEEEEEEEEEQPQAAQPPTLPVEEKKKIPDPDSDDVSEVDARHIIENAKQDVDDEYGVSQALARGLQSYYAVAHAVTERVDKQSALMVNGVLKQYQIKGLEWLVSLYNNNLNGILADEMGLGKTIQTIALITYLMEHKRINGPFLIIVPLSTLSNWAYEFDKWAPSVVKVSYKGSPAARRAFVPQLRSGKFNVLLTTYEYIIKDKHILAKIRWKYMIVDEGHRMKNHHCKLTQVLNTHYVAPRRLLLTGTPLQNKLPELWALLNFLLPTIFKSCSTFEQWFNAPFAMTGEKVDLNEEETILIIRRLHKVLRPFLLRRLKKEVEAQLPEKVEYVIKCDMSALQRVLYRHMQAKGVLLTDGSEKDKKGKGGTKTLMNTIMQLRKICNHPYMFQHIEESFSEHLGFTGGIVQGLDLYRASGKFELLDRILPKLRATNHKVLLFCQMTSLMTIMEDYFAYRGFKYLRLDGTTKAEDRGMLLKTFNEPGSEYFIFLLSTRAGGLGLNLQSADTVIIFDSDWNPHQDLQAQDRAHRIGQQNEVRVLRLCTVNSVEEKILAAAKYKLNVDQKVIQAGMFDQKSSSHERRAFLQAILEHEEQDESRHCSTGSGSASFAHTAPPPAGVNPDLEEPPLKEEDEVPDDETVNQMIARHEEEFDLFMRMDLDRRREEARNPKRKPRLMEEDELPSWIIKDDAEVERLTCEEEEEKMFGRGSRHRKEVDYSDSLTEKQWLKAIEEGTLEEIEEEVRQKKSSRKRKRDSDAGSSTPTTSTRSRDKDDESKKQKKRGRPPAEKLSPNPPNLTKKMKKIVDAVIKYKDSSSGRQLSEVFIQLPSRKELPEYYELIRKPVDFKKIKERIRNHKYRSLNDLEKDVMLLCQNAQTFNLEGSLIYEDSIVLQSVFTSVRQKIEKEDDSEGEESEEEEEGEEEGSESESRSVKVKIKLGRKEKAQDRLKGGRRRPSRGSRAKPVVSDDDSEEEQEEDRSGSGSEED
# ASSAY_TEXT: Cellular degradation assay, SMARCA4 (Table 1)
# Assay type: cell-based

COMPOUND | Dmax [%]
CC1(C(=O)N2CC3(CN(CC4CCN(c5ccc([C@H]6CCC(=O)NC6=O)cc5)CC4)C3)C2)CCN(c2cnnc(-c3ccccc3O)c2)CC1 | 39.1
CN(C(=O)C1(c2cnn(C)c2)CCN(c2cnnc(-c3ccccc3O)c2)CC1)C1CCN(CC2CCN(c3ccc(C4CCC(=O)NC4=O)cc3)CC2)CC1 (racemic) | 47.3
O=C1CC[C@H](c2ccc(N3CCC(CN4CC5(C4)CN(C(=O)C4(C6CC6)CCN(c6cnnc(-c7ccccc7O)c6)CC4)C5)CC3)cc2)C(=O)N1 | 31.7
C[C@H]1C[C@H](NC(=O)C2(c3ccccc3)CCN(c3cnnc(-c4ccccc4O)c3)CC2)CCN1C(=O)CN1CCC(c2ccc([C@H]3CCC(=O)NC3=O)cc2)CC1 (racemic) | 24.7
O=C1CC[C@@H](c2ccc(N3CCN(CC4=NO[C@@H]5CN(C(=O)C6(c7ccccc7)CCN(c7cnnc(-c8ccccc8O)c7)CC6)C[C@H]45)CC3)cc2)C(=O)N1 (racemic) | 34
O=C1CCC(c2ccc(C3CCN(CC(=O)N4CC5(C4)CN(C(=O)C4(Oc6ccccc6Cl)CCN(c6cnnc(-c7ccccc7O)c6)CC4)C5)CC3)cc2)C(=O)N1 (racemic) | 63.4
C[C@H](Oc1ccc(C2CCC(=O)NC2=O)cc1)C1CCN(C(=O)C2(c3ccccc3)CCN(c3cnnc(-c4ccccc4O)c3)CC2)CC1 (mixture of isomers) | 22.1
Cc1cccc(C2(C(=O)N3CC4(CN(CC5CCN(c6ccc(C7CCC(=O)NC7=O)cc6)CC5)C4)C3)CCN(c3cnnc(-c4ccccc4O)c3)CC2)c1 (racemic) | 59.3
O=C1CC[C@H](c2ccc(N3CCC(CN[C@H]4CC[C@H](NC(=O)C5(c6ccccc6)CCN(c6cnnc(-c7ccccc7O)c6)CC5)CC4)CC3)cc2)C(=O)N1 (racemic) | 35.6
CN(C(=O)C1(Oc2ccn(C)n2)CCN(c2cnnc(-c3ccccc3O)c2)CC1)C1CCN(C(=O)CN2CCC(c3ccc([C@@H]4CCC(=O)NC4=O)cc3)CC2)CC1 (racemic) | 56.9
CN(C(=O)C1(Oc2ccccc2Cl)CCN(c2cnnc(-c3ccccc3O)c2)CC1)C1CCN(C(=O)CN2CCC(c3ccc([C@@H]4CCC(=O)NC4=O)cc3)CC2)CC1 (racemic) | 87.7
O=C1CC[C@@H](c2ccc(N3CCC(CN4CCC(NCC5(c6ccccc6)CCN(c6cnnc(-c7ccccc7O)c6)CC5)CC4)CC3)cc2)C(=O)N1 | 61.9
Cc1cc(C2(C(=O)N(C)C3CCN(CC4CCN(c5ccc(C6CCC(=O)NC6=O)cc5)CC4)CC3)CCN(c3cnnc(-c4ccccc4O)c3)CC2)on1 (racemic) | 34.8
O=C1CCC(c2ccc(N3CCC(CN4CC5(C4)CN(C(=O)C4(Cc6ccccc6)CCN(c6cnnc(-c7ccccc7O)c6)CC4)C5)CC3)cc2)C(=O)N1 (racemic) | 14.6
COC1(C(=O)N(C)C2CCN(CCC3CCN(c4cccc5c4n(C)c(=O)n5C4CCC(=O)NC4=O)CC3)CC2)CCN(c2cnnc(-c3ccccc3O)c2)CC1 (racemic) | 66.9
O=C1CC[C@H](c2ccc(N3CCC(CCN4CC5CCC(C4)C5C(=O)NCC4(c5ccccc5)CCN(c5cnnc(-c6ccccc6O)c5)CC4)CC3)cc2)C(=O)N1 (mixture of isomers) | 80.7
O=C1CCC(c2ccc(N3CCC(CCN4CC5(C4)CN(C(=O)C4(c6ccccc6F)CCN(c6cnnc(-c7ccccc7O)c6)CC4)C5)CC3)cc2)C(=O)N1 (racemic) | 15
O=C1CC[C@H](c2ccc(N3CCC(CN4CC5CCCC(C4)N(C(=O)C4(c6ccccc6)CCN(c6cnnc(-c7ccccc7O)c6)CC4)C5)CC3)cc2)C(=O)N1 (stereo partly drawn) | 9.72
CC1CC2CN(CC3CCN(c4ccc([C@H]5CCC(=O)NC5=O)cc4)CC3)CC2N1C(=O)C1(c2ccccc2)CCN(c2cnnc(-c3ccccc3O)c2)CC1 (stereo partly drawn) | 20.2
CN(C(=O)C1(c2ccc(F)cc2)CCN(c2cnnc(-c3ccccc3O)c2)CC1)C1CCN(CCC2CCN(c3ccc(C4CCC(=O)NC4=O)cc3)CC2)CC1 (racemic) | 31.1
COC1(C(=O)N(C)C2CCN(CCC3CCN(c4ccc(C5CCC(=O)NC5=O)cc4)CC3)CC2)CCN(c2cnnc(-c3ccccc3O)c2)CC1 (racemic) | 20.3
